Measured percent of binding to the natural peptide (AUC) of individual entries
Study target: T1, residue mutated to A: P (also: biotinylated, attachment site not given here)
T1 construct: position from the legend (CFH1114-1121)
T1 peptide: GPPPAIDNGDITSFP
Experimental protocol: ELISA on streptavidin-immobilized biotinylated 15mer peptides; area under the signal vs antibody concentration curve;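 note: antibody binding to each alanine-substituted peptide expressed relative to binding to the natural peptide, using curve area determined separately for every peptide-antibody pair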
Ends that are not written are not given here.
Dear colleague, please return just the value in %, with no unit written.

[[record]]
binder = "Ab7961/293i (antibody, V domains shown, Recombinant human mAb) VH: LVESGGGVVQPGKSLRLSCVASGFTFSSYGMHWVRQAPGKGLEWVAVMSFDGKTKYYADSVKGRFTISRDNPKNTLYLQMNSLRSEDTAVYYCAKGGAAAAVFDSWGQGILLTVSS VL: MTQSPNSLAVSLGGRATINCKTSQSILYRSNNKNYLAWYQHKSGQPPKLLIYWASTRESGVPDRFSGSGSRTDFTLTISGLQAEDVAVYYCQQYYNPPWTFGQGTKVEIK"
units_symbol = "%"
quantitative_result = 56

[[record]]
binder = "Ab7960/293i (antibody, V domains shown, Recombinant human mAb) VH: LVESGGGVVQPGKSLRLSCVASGFSFSTYGMHWVRQAPGKGLEWVAVMSFDGKTKYYADSVKGRFTISRDNPKNTLYLQMNSLRSEDTAVYYCAKGGAAAAVFDSWGPGILLTVSS VL: MTQSPNSLAVSLGGRATINCKASQSILYRSNNKNYLAWYQHKAGQPPKLLIYWASTRESGVPERFSGSGSRTDFTLTINGLQAEDVAVYYCQQYYNPPWTFGQGTKVEIK"
units_symbol = "%"
quantitative_result = 53

[[record]]
binder = "Ab7979 (antibody, V domains shown, Recombinant human mAb) VH: LVESGGGVVQPGKSLRLSCVASGFTFSTYGMHWVRQAPGKGLEWVAVMSFDGKTKYYADSVKGRFTISRDNPKNTLYLQMNSLRSEDTAVYYCAKGGAAAAVFDSWGQGILLTVSS VL: MTQSPNSLAVSLGGRATINCKTSQSILYRSNNKNYLAWYQHKPGQPPKLLIYWASTRESRVPDRFSGSGSRTDFTLTISGLQAEDVAVYYCQQYYNPPWTFGQGTKVEIK"
units_symbol = "%"
quantitative_result = 64

[[record]]
binder = "Ab7955 (antibody, V domains shown, Recombinant human mAb) VH: LVESGGGVVRPGRSLRLSCVASGFTFNAYGMHWVRQGPGKGLEWLAVISYEGKTVYYADSVKDRFTISRDNSRNTVSLHLNNLRGEDTAVYYCAKGSASAAVLQHWGQGTLVSVTS VL: MTQSPGSLAVSLGSRATINCKSSRSLLYRSNNKNYLAWYQQKPGQSPRLLIYWASSRESGVPDRFSGGGSGTSFTLTISSLQAEDVAVYYCQQYFNPPWTFGQGTKVEIK"
units_symbol = "%"
quantitative_result = 52

[[record]]
binder = "Ab7957/293i (antibody, V domains shown, Recombinant human mAb) VH: LVESGGGVVPPGKSLRLSCAASGFTFSLYGIHWVRQAPGKGLEWVAVISYDGNTKYYTDSVKGRFTISRDNAKNTIYLQMNSLRLDDTAVYYCAKGAANSATFDFWGRGTMVTVSS VL: MTQSPDSLTLSLGERATINCRSSRTVLYRSNNKNYLAWYQHKPGQPPKLLMSWASTRETGVPDRFSGSGSGTHFTLTITSLQPEDVAVYYCQQYYSPPWTFGQGTKVEIR"
units_symbol = "%"
quantitative_result = 61


Then this binder:
Query: Quick one: percent of binding to the natural peptide (AUC) of CFH mAb7968 (antibody, V domains shown, also called CBAb1) VH: LVESGGGVVQPGRSLRLSCAASGFTFSRYGMHWVRQAPGKGLEWVAVMSYDGSTKYYADSVKGRFAISRDNPKNTLFLQMNSLRPDDTAVYYCAKGGAAAAVMDVWGKGTTVTVSS VL: MTQSPDSLTVSLGERATISCKSSQRLLYSSNNKNYLAWYQQKPGQPPKLLMYWASTRESGVPDRFSGSGSGTDFSLTISSLQAEDVAVYYCQQYYNPPWTFGQGTKVEVK ?
Response: 73
